# TEST_DESCRIPTION: Half life in CD1 mouse at 2.5 to 15 mg/kg, iv
# Format: ADME, organism-based
# Parameters: dose 2.5-15 mg/kg, route intravenous
# CONDITION_SUMMARY: in vivo
PROPERTY: half-life (min)

1. Nc1ccccc1NC(=O)c1ccc(CNc2nccc(-c3cccnc3)n2)cc1 [MOCETINOSTAT] :: 36

====

# TEST_DESCRIPTION: Volume of distribution at steady state in Beagle dog at 10 mg/kg, iv and 7 to 30 mg/kg, po
# Assay type: ADME, organism-based, Canis lupus familiaris
# CONDITION_SUMMARY: in vivo, read-out: Vdss
PROPERTY: Vd (L/kg)

1. Nc1ccccc1NC(=O)c1ccc(CNc2nccc(-c3cccnc3)n2)cc1 :: 0.8

====

# TEST_DESCRIPTION: Oral bioavailability in Beagle dog at 7 to 30 mg/kg
# Format: ADME, organism-based, Canis lupus familiaris
# CONDITION_SUMMARY: in vivo
PROPERTY: bioavailability (%)

1. Nc1ccccc1NC(=O)c1ccc(CNc2nccc(-c3cccnc3)n2)cc1 :: 1

====

# TEST_DESCRIPTION: Clearance in Beagle dog at 10 mg/kg, iv and 7 to 30 mg/kg, po
# Assay type: ADME, organism-based, Canis lupus familiaris
# CONDITION_SUMMARY: in vivo
PROPERTY: clearance (mL/min/kg)

1) Nc1ccccc1NC(=O)c1ccc(CNc2nccc(-c3cccnc3)n2)cc1 :: 33.3

====

# TEST_DESCRIPTION: Volume of distribution at steady state in Sprague-Dawley rat at 2.5 to 5 mg/kg, iv and 2.5 to 50 mg/kg, po
# Type: ADME, organism-based
# CONDITION_SUMMARY: in vivo, read-out: Vdss
PROPERTY: Vd (L/kg)

1) Nc1ccccc1NC(=O)c1ccc(CNc2nccc(-c3cccnc3)n2)cc1 [MOCETINOSTAT] :: 0.91

====

# Test system: HCT-116
# TEST_DESCRIPTION: Antiproliferative activity against human HCT116 cells after 72 hrs by MTT assay
# CONDITION_SUMMARY: HCT-116, 72 h
pIC50: −log10 of the molar value.
PROPERTY: pIC50

1) Nc1ccccc1NC(=O)c1ccc(CNc2nccc(-c3cccnc3)n2)cc1 :: 6.54

====

# System: DU-145
# TEST_DESCRIPTION: Antiproliferative activity against human Du145 cells after 72 hrs by MTT assay
# Type: functional, cell-based
# CONDITION_SUMMARY: DU-145, 72 h
PROPERTY: IC50 (nM)

1) Nc1ccccc1NC(=O)c1ccc(CNc2nccc(-c3cccnc3)n2)cc1 :: 670

Taken from ChEMBL document CHEMBL1155041.
